- Read-out: Interleukin 17A (IL17A), IL17A (gene 3605)
- measurement.notes: BSK_BT_xIL17A: BioMAP Diversity Plus: BT Assay for Interleukin 17A (IL17A) Biomarker Activity (AID 2284229)
- condition.details: primary human B cells with PBMC
Calls of active or inactive are those of the source. The calls were made as follows: active = hit-call score of the fitted dose curve at least 0.9, where 1 is the maximum; inactive = score below 0.9.
Reply using exactly one outcome from active, inactive

Previously resolved entries follow.
Oc1cccc2ccccc12 :: inactive
CCCCCCCCCCCCCCCCCC[N+](C)(C)C :: active

Kindly consider the entry below.
Problem: Given "O=C(C(=O)c1ccccc1)c1ccccc1" , state the outcome it received in this test.
Solution: inactive

###

- target.of.assay: Cellular tumor antigen p53 (Homo sapiens) (UniProt P04637)
- Sequence (P04637 whole entry, looked up): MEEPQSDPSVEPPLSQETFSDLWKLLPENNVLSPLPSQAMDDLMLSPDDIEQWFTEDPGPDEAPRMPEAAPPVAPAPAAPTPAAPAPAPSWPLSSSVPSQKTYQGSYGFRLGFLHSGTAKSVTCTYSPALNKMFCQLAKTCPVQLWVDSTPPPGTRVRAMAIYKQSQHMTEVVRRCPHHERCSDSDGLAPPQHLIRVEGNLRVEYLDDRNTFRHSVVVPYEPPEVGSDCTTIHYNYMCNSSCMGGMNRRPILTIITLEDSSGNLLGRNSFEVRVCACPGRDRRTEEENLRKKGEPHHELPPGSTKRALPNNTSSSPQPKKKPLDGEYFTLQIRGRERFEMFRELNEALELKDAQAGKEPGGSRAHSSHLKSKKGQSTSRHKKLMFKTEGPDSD
- measurement.notes: TOX21_p53_BLA_p5_ratio: Tox21 HCT-116 p53 Agonism Beta-lactamase Assay, Ratio, Phase 5 (AID 2283599)
Inconclusive results are not listed. Active and inactive are the calls of the source. The calls were made as follows: active = hit-call score of the fitted dose curve at least 0.9, where 1 is the maximum; inconclusive = response in the unintended direction; inactive = score below 0.9.
observed.property: outcome

CCNc1nc(NC(C)CC)nc(OC)n1 (stereo not drawn) :: inactive
Oc1cc2c(cc1O)[C@H]1c3ccc(O)c(O)c3OC[C@@]1(O)C2 :: inactive
CCOC(=O)CS :: inactive
